Test system: rat mixed hippocampal cultures
Assay: 3-NP neurotoxicity (neuroprotection) assay, MTT endpoint
Type: cell-based
Conditions: 10 μM agent, 60 minutes incubation, 3 mM 3-NP, compared to 0.1% DMSO vehicle control
quantity-measured: Protection vs 3NP

| compound | observed |
| --- | --- |
| Clc1ccc(COC(Cn2ccnc2)c2ccc(Cl)cc2Cl)c(Cl)c1 (stereo not shown) [MICONAZOLE NITRATE, Miconazole Nitrate] | 81.61% |
| OC(Cn1cncn1)(Cn1cncn1)c1ccc(F)cc1F | 13.35% |
| COc1ccc(/C=C/c2cc(O)cc(O[C@@H]3O[C@H](CO)[C@@H](O)[C@H](O)[C@H]3O)c2)cc1O | 22.12% |

Switching to the query record.
Which value of Protection vs 3NP has been reported for CC(=O)N1CCN(c2ccc(OCC3COC(Cn4ccnc4)(c4ccc(Cl)cc4Cl)O3)cc2)CC1 (stereo not shown) in the records?
20.93%

Data provenance: patent US20100298394A1
